Just for reference, patent US20050154189A1 is where these values come from.

# Target desc: T1, Soluble CD28-Ig (human, UniProt P10747 19-152, biotin-conjugated (NHS-biotin) in the labelled-ligand FACS assays)
# T1 construct: extracellular domain; Bought from R&D Systems; also called sCD28-Ig; CD28-Ig Fc; not shown: Fc portion of human IgG1
# Protocol notes: two-colour FACS profile on transfected cells; score of preference for CD28-Ig over CTLA-4-Ig vs WT hB7-1
Observation type: Binding Score
Just the number, please, no unit after it.

- Round 2 CD28E10-6 (ligand) ITPKSVTKRVKETVMLSCDYNTSTEELTSLRIYWQKDSKMVLAILPGKVQVWPEYKNRTITDMNDNPRIVILALRLSDSGTYTCVIQKPVLKGAYKLEHLASVRLMIRADFPVPTINDLGNPSPNIRRLICSTSGGFPRPHLYWLENGEELNATNTTLSQDPETELYMISSELDFNVTNNHSIVCLIKYGELSVSQIFPWSKPKQEPPIDQLPFWVIIPVSGALVLTAVVLYCLACRHVARWKRTRRNEETVGTERLSPIYLGSAQSSG: 1

Field: next binder
[ask] Quick one: Binding Score for Round 2 CD28F3-1 (ligand) ITPKSVTKRVKETVMLSCDYNTSTEELTSLRIYWQKDSKMVLAILPGKVQVWPEYKNRTITDMNDNPRIVILALRLSDSGTYTCVIQKPDLKGAYKLEHLTSVRLMIRADFPVPTINDLGNPSPNIRRLICSTSGGFPRPHLYWLENGKELNATNTTLSQDPETKLYMISSELDFNMTSNHSFLCLVKYGDLTVSQTFYWQESKPTPSANQHLTWTIIIPVSAFGISVIIAVILTCLTCRNAAIRRQRRENEVEMQSCSQSP ?
[reply] 0
